# target or test system: T1, human A33 antigen, full length, on cells (human, UniProt Q99795 22-319)
# T1 construct: CHO cells transfected with full length A33 cDNA (A33-CHO), or endogenous antigen of LS174T (colon) and AsPC-1 (pancreatic) tumour cells; The cell line is named under assay; also called A33-CHO; A33 antigen on LS174T cells
# T1 sequence: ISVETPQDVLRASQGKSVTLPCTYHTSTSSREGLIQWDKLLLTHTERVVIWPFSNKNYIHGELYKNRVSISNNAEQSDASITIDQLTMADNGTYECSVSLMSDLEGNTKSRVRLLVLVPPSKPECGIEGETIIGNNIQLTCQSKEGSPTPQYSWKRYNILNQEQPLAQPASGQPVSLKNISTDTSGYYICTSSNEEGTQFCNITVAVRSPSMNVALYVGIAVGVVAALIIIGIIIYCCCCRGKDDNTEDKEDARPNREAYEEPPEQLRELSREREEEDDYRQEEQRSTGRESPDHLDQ
# assay procedure: IHC on LS174T FFPE sections, 20ug/mL
// classify: if (H-Score of IHC < 30 H-Score) 1.0 else 0.0

Please review the following examples before continuing.
binder	discrete label
humanized 31.1 antibody #9 (sdr-HC + cdr-LC) (antibody, human IgG1, kappa, V domains shown, Full heavy and light chains; transient Expi293 expression, tested as culture supernatant; also called Sample ID 9; sdr31.1-HC + cdr31.1-LC) VH: QIQLVQSGAEVKKPGASVKVSCKASGYTFTNYGMNWVRQAPGKGLEWMGWINPYTGEPTYAQKFQGRVTFTLDTSISTAYMELSRLRSDDTAVYFCARAYYGKYFDYWGQGTTVTVSS VL: SIVMTQSPSSLSASVGDRVTITCKASQSVSNDVAWYQQKPGQSPKLLIYYASNRYTGVPDRFSGSGYGTDFTLTISSLQPEDFAVYFCQQDYSSPLTFGAGTKLEIKR	0.0
humanized 31.1 antibody #13 (ven-HC + cdr-LC) (antibody, human IgG1, kappa, V domains shown, Full heavy and light chains; transient Expi293 expression, tested as culture supernatant; also called Sample ID 13; ven31.1-HC + cdr31.1-LC) VH: QIQLVQSGPEVKKPGASVKISCKASGYTFTNYGMNWVKQAPGQGLKWMGWINTYTGEPTYADDFKGRFAFTLDTSISTAYLEISRLRSDDTAVYFCARAYYGKYFDYWGQGTTLTVSS VL: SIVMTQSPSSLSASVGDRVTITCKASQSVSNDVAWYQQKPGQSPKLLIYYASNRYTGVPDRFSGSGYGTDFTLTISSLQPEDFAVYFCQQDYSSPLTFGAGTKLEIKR	1.0
humanized 31.1 antibody #3 (cdr-HC + sdr-LC) (antibody, human IgG1, kappa, V domains shown, Full heavy and light chains; transient Expi293 expression, tested as culture supernatant; also called Sample ID 3; cdr31.1-HC + sdr31.1-LC) VH: QIQLVQSGAEVKKPGASVKVSCKASGYTFTNYGMNWVKQAPGKGLKWMGWINTYTGEPTYADDFKGRFAFTLDTSISTAYMELSRLRSDDTAVYFCARAYYGKYFDYWGQGTTVTVSS VL: SIQMTQSPSSLSASVGDRVTITCRASQSISNDLAWYQQKPGQSPKLLIYYASNRYTGVPDRFSGSGYGTDFTLTISSLQPEDFAVYFCQQDYSSPLTFGAGTKLEIKR	1.0

# input # check: H-Score of IHC < 30 H-Score for humanized 31.1 antibody #11 (sdr31.1-HC + sdr31.1-LC) (antibody, human IgG1, kappa, V domains shown, Full heavy and light chains; supernatant in the first screen, Protein A/G purified in the third round; used as negative control; also called Sample ID 11; sdr-HC + sdr-LC) VH: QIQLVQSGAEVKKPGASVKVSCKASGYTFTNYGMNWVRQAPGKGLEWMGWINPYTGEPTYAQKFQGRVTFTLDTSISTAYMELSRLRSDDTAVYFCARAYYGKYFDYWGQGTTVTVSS VL: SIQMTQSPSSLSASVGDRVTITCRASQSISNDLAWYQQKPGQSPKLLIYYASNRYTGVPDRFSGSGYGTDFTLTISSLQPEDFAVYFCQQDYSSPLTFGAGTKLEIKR
# output 0.0
